# Tested on: Saccharomyces cerevisiae lifespan shortening, growth inhibition
# PROTOCOL_DESCRIPTION: yeast lifespan shortening compounds, dose response (AID 849);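 note: yeast growth read as optical density after two days at 30 degrees C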
Active and inactive are the calls of the source. The rule behind the calls is not given here.
Answer with one of the outcomes label 1 = active, label 0 = inactive

# input Call for entry O=C(O)C1C2C=CC(O2)C1C(=O)NC1CCCc2ccccc21 (centres undefined) :
# output label 0

# input For CCCC(=O)NC(c1cccs1)c1cc([N+](=O)[O-])c2cccnc2c1O (centres undefined) , which call appears in the assay record?
# output label 1

# input I would be grateful if you could indicate the recorded call for "Cc1ccc(Nc2cc(C)nn2-c2nc(C)cc(=O)[nH]2)cc1" .
# output label 1

# input I'd appreciate the recorded outcome for "Cc1ccc2[nH]c3c(c2c1)CCc1cn[nH]c1-3" from this test.
# output label 1

# input Look up the recorded call for "Cc1cc(C(=O)COC(=O)c2ccc[nH]c2=O)c(C)n1-c1ccc(Br)cc1" in this test.
# output label 0

# input Record request — test call for "COC(=O)Cc1cc(=O)n(-c2nc3ccccc3[nH]2)[nH]1"
# output label 1

# input // param item: "c1ccc(Cc2nnc3sc(-c4ccc5c(c4)OCCO5)nn23)cc1" ; yields the recorded call
# output label 0

# input What is the recorded call for this compound in the test? "O=C(CCc1ccccc1)NNC(=S)NC(=O)c1ccccc1"
# output label 0

# input Called result for "CNC(=O)Oc1cccc(-c2cn3cc(OC(=O)NC)ccc3n2)c1"
# output label 1

* * *

# System: Saccharomyces cerevisiae lifespan shortening, growth inhibition
# PROTOCOL_DESCRIPTION: yeast lifespan shortening compounds, dose response (AID 849);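 note: yeast growth read as optical density after two days at 30 degrees C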
Active and inactive are the calls of the source. The rule behind the calls is not given here.
ATTRIBUTE_MEASURED: IC50

Examples with answers:
COMPOUND	IC50
O=C(/C=C/c1ccccc1)c1cc(Br)ccc(=O)c1O	10.1 µM
OC(CNCCc1ccc(C(F)(F)F)cc1)COc1ccc2ccccc2c1 (stereo unspecified)	> 100 µM (inactive)
Oc1c(Cl)cc(Cl)c2c1NCCC2	17.4 µM

# input Item under review: "CSC1=NSC2=NC(=O)/C(=C/c3coc4ccccc4c3=O)C(=N)N12" . Reported IC50?
# output 44.1 µM

# input Reported IC50 for "Cc1ccc(NN2C(=O)C=C(c3ccc(Cl)cc3)C2=O)cc1" : what is it?
# output 18.4 µM

# input I would be grateful if you could share the reported IC50 for "O=C(NNC(=S)NC(=O)C12CC3CC(CC(C3)C1)C2)c1ccncc1" .
# output 19.6 µM

# input Which IC50 value is on record for "C(=N\c1ncnc2sccc12)/NOCc1ccccc1" ?
# output 23.2 µM

# input For "O=C1ON=C(c2ccccc2)/C1=C/c1ccc(OS(=O)(=O)c2ccccc2)cc1" , what is its reported IC50?
# output 18.9 µM

# input What does the record list as IC50 for Cc1ccc(-c2cc(C(=O)N3N=C(C(F)F)CC3(O)C(F)F)c3ccccc3n2)cc1C (stereo unspecified) ?
# output > 100 µM (inactive)

# input Return reported IC50; argument: "Oc1c(CN2CCN(c3ccc(F)cc3)CC2)cc(Cl)c2cccnc12"
# output 10.2 µM

# input Given the compound "COc1ccc2[nH]c3c(Cl)ncnc3c2c1" , what is its reported IC50?
# output 18.5 µM

* * *

Listed compounds paired with reported IC50
# Test system: Saccharomyces cerevisiae lifespan shortening, growth inhibition
# PROTOCOL_DESCRIPTION: yeast lifespan shortening compounds, dose response (AID 849);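 note: yeast growth read as optical density after two days at 30 degrees C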
The source made the active and inactive calls. No rule for the calls is given here.

Completed entries (count: 3):
COMPOUND	TEST_SYSTEM	ENDPOINT_VALUE
CN(O)/C=c1/ccc2c(n1)C(=O)C=CC=2	Saccharomyces cerevisiae lifespan shortening, growth inhibition	8.11 µM
O=C(Nc1cccc(C(F)(F)F)c1)C(Sc1cccc[n+]1[O-])c1ccccc1 (stereo unspecified)	Saccharomyces cerevisiae lifespan shortening, growth inhibition	21.5 µM
N#CSCC(=O)c1cccc2ccccc12	Saccharomyces cerevisiae lifespan shortening, growth inhibition	8.65 µM

Read the next record carefully.
# input Lab request: please report IC50 under test system Saccharomyces cerevisiae lifespan shortening, growth inhibition for "CCOc1ccc(/C=C/[N+](=O)[O-])c2ccccc12"
# output > 100 µM (inactive)

* * *

# System: Saccharomyces cerevisiae lifespan shortening, growth inhibition
# PROTOCOL_DESCRIPTION: yeast lifespan shortening compounds, dose response (AID 849);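 note: yeast growth read as optical density after two days at 30 degrees C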
Calls of active or inactive are those of the source. The rule behind the calls is not given here.
Use one of these outcomes when replying: Yes for active, No for inactive

Answered cases to consult:
COMPOUND	GROUP_LABEL
COc1ccc(S(=O)(=O)n2oc(=O)cc2-c2ccccc2)cc1OC	No
C/C(=N\Nc1ccc(Cl)c(Cl)c1)c1ccc(-n2ccnc2)cc1	Yes
COc1cccc(CC(=O)Nc2ccc3nc(C)sc3c2)c1	Yes
CC1=NOC(=O)/C1=C/c1ccc(-c2ccc(Cl)cc2)o1	No

# input Field: outcome | Entry: "c1ccc(-c2nnc(-c3ccccn3)nc2NC2CCCCC2)cc1"
# output Yes

# input Please share the test call associated with "N/C(Cc1ccc(Cl)cc1)=N\OC(=O)C1CCCCC1" .
# output Yes

# input Field: outcome | Entry: "Cc1ccc(O)c(C(=O)CC(=O)c2cccc(F)c2)c1"
# output No

# input Assay result, entry COc1ccc(OC)c(C2CC(=O)N3CN(c4cccc(Cl)c4)CSC3=C2C#N)c1 (stereo unspecified) — outcome?
# output No

# input Dear colleague, could you share the recorded outcome for CC1CCCCN1S(=O)(=O)c1coc(C(N)=O)c1 (stereo unspecified) when you have a moment?
# output No

# input Assay result, entry CC(C)(C)c1cc(C(c2cccnc2)N2CCN(CCO)CC2)cc(C(C)(C)C)c1O (stereo unspecified) — outcome?
# output Yes

# input Record lookup: outcome of this test for "O=C1c2cccc3cccc(c23)C(=O)N1c1cccnc1" ?
# output Yes

* * *

# System: Saccharomyces cerevisiae lifespan shortening, growth inhibition
# PROTOCOL_DESCRIPTION: yeast lifespan shortening compounds, dose response (AID 849);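 note: yeast growth read as optical density after two days at 30 degrees C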
Activity calls are given as the source filed them. No rule for the calls is given here.
Use one of these outcomes when replying: yes for active, no for inactive

Illustrative cases are given below, each with its answer.
COMPOUND	GROUP_LABEL
CCC(=C(c1ccc(OC)cc1)c1ccc(OC)cc1)c1cn(CC(O)CN2CCN(C)CC2)c2ccccc12 (centres undefined)	yes
O=S(=O)(Nc1ccc(-c2nc3ccccc3o2)cc1)c1ccccc1	no
Oc1ccccc1NCC(O)Cn1ccc2ccccc21 (centres undefined)	no

# input In this assay, the call recorded for "O=c1c(-c2ccccc2)nc(-c2ccccc2)cn1O" was what?
# output yes

# input Outcome logged for CCC(C)/C(C)=N/NC(=O)c1ccc(COc2ccc(Cl)c(C)c2)cc1 (centres undefined) in this assay:
# output yes

# input What classification did "Cc1nc2ccccc2c2c1C(=O)N(C)C2=O" end up with in this test?
# output yes

# input Give the logged outcome of this assay for the following compound: "Cc1ccccc1C(=O)NNC(=S)NC(=O)COc1ccccc1"
# output yes

# input # outcome recorded in this test, key = "c1ccc(-c2ccc(OCCCn3cncn3)cc2)cc1"
# output no

# input Could you please tell me the result logged for "OCc1ccnc2c(O)cccc12" in this assay?
# output no

# input Dear colleague, could you share the recorded outcome for "O/N=C/c1cc(Cl)ccc1OCc1cccc2ccccc12" when you have a moment?
# output no

# input Test call, this compound: "O=C(/C=C/N1CCOCC1)c1ccc(-c2ccccc2)cc1"
# output yes

* * *

# Tested on: Saccharomyces cerevisiae lifespan shortening, growth inhibition
# PROTOCOL_DESCRIPTION: yeast lifespan shortening compounds, dose response (AID 849);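 note: yeast growth read as optical density after two days at 30 degrees C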
Activity calls are given as the source filed them. How the calls were made is not given here.
Can you answer with just one of these options? TRUE for active, FALSE for inactive

Some solved cases for reference:
MOLECULE	GROUP_LABEL
CCSc1nc(N)nc(-c2cccs2)c1C#N	TRUE
COc1ccc(-c2cc3nc(C)cc(N4CC(C)CC(C)C4)n3n2)cc1 (centres undefined)	TRUE
CCOc1ccc(/C=C/C(=O)c2cc(Br)ccc(=O)c2O)cc1	TRUE
Cc1cccc(C(=O)NC(=S)NNC(=O)c2cccs2)c1	TRUE
COc1ccccc1C(=O)NNC(=S)NC(=O)c1ccco1	FALSE
Cc1ccc(-c2nnc3ccc(SC(C)C(=O)O)nn23)cc1 (centres undefined)	FALSE
O=C(CCSc1nnc(-c2ccncc2)o1)Nc1ccc(Cl)cc1	TRUE
OCc1ccc(O)c2ncccc12	TRUE
O=C(Nc1nnc(C2CC2)s1)c1ccccn1	TRUE
CCCc1ccc(Oc2c(-c3ccc(O)c(C)c3O)n[nH]c2C)cc1	TRUE

# input How did this test come out for "C=CCSc1nnc2nc3c(nn12)c1cc(C)ccc1n3CC=C" ?
# output FALSE

# input GET /call?item= CC(=O)N1c2ccccc2C2(O)N=C(C)SC12 (centres undefined) returns the recorded outcome of this test.
# output FALSE

# input Could you check what this test reported for COc1ccc(NC(=O)CC2SC(=Nc3ccccc3)NC2=O)c(OC)c1 (centres undefined) ?
# output FALSE

# input Dear colleague, could you share the recorded outcome for "COc1cc(/C=C2/C(=O)ON=C2c2ccccc2)ccc1O" when you have a moment?
# output TRUE

# input So what was the verdict on "CC1=C(C)/C(=N\OS(=O)(=O)c2ccccc2)C=CC1=O" in this test?
# output TRUE

# input Which outcome was entered for the molecule "c1ccc2nc3c(nc2c1)[nH]c1ccccc13" in this test?
# output TRUE

# input Look up the recorded call for "CCn1c(Sc2nc(C)nc3scc(-c4cccs4)c23)n[nH]c1=O" in this test.
# output FALSE

# input Test call, this molecule: "C=CCN1C(C(=O)c2ccccc2)=C(OC(=O)COc2ccccc2)c2ccccc2S1(=O)=O"
# output TRUE

# input # lookup: test call for CC(=O)NC(c1cccs1)c1cc([N+](=O)[O-])c2cccnc2c1O (centres undefined)
# output FALSE
